Assay: NCI Yeast Anticancer Drug Screen. Data for the rad50 strain (AID 155);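 further: 0% = growth of vehicle-only cultures of the same strain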
Conditions: S. cerevisiae rad50 strain growth inhibition; at 50.0 µM; stronger effect = higher value
This is part of a sample that, as a whole, favours compounds with a hit. Of some 79,000 tested, about 15% had one in any assay.
Mark fulfilled for reported growth inhibition of -20% or greater; mark not fulfilled for anything smaller.

Cc1cccc(Cl)c1OP(=O)(Oc1c(C)cccc1Cl)Oc1c(C)cccc1Cl	fulfilled
CN=c1ssc(/N=C(\SC)N(C)C)[n+]1C	fulfilled
CCC(N)CBr (configuration not stated)	fulfilled

*Q* Quick check: does O=P(O)(NCCCl)NCCCl have growth inhibition greater than or equal to -20%?
*A* not fulfilled

*Q* growth inhibition >= -20% for Cc1cc(N)ccc1N ?
*A* fulfilled

*Q* Decide: growth inhibition of CCOP(=O)(OCC)/C(C#N)=C/c1cnc(C)[nH]1 >= -20%?
*A* not fulfilled

* * *

Examples of compounds with documented growth inhibition follow.
Assay: NCI Yeast Anticancer Drug Screen. Data for the mec2-1 strain (AID 157)
Conditions: S. cerevisiae mec2-1 strain, at 50.0 µM, stronger effect = higher value
This is part of a sample that, as a whole, favours compounds with a hit. Of some 79,000 tested, about 15% had one in any assay.
Answer format: numeric, % implied, no suffix.

See these solved cases before continuing.
Oc1ccccc1C=NC1CCCCC1.Oc1ccccc1C=NC1CCCCC1.[Ni+2]	-9.25
COc1ccc2c3c1OC1C(O)C=CC4C(C2)N(N=O)CCC341 (stereo unspecified)	9.6
Cc1cccc(-c2cc(Cl)c3cc(S(=O)(=O)F)ccc3n2)c1	-25.4
CCCCOP(=S)(N1CCCCC1)N1CCCCC1	3.5
CCN(CC)[P+](C1=C(Cl)C(=O)C(Cl)=C(Cl)C1=O)(N(CC)CC)N(CC)CC	-12
CC(SC(C)C(=O)N/N=C/c1ccc(N(CCCl)CCCl)cc1)C(=O)N/N=C\c1ccc(N(CCCl)CCCl)cc1 (stereo unspecified)	-0.55
CC(=O)CCC(=O)O.[Ni]	0.2
O=C(NCCc1ccccn1)c1ccc2cc(C(=O)N3CC(CCl)c4ccc([N+](=O)[O-])cc43)[nH]c2c1 (stereo unspecified)	-2

The reported value for CCOC(OC1=C(C#N)CCCC1)C(C)[Se]c1ccccc1 (stereo unspecified) in terms of growth inhibition is 25.2

So for CCOP(=O)(OCC)C(O)C(C)C (stereo unspecified) , the logged growth inhibition turned out to be 16.9

* * *

Assay: NCI Yeast Anticancer Drug Screen. Data for the mlh1 rad18 strain (AID 175)
Details: S. cerevisiae mlh1 rad18 strain growth inhibition; at 50.0 µM; stronger effect = higher value
About 79,000 compounds went through this panel and 15% of them were active in at least one assay; those are over-represented in the sample as a whole.
Each entry below lists one item and its recorded growth inhibition value.
Provide only the numeric value, understood in %.

COc1ccccc1OC (tested in a mixture with another compound)	16.2

Reported growth inhibition of O=C(CF)Nc1ccc([N+](=O)[O-])cc1 : 9.1

The recorded growth inhibition for CC(NC(=O)c1c(O)[nH]c(=S)[nH]c1=O)c1ccc([N+](=O)[O-])cc1 (stereo not given) is 14.6

The recorded growth inhibition for O=c1cc(N2CCNCC2)nc2ccccn12 is 6.35

The measured growth inhibition associated with C=CC(=O)OC(C)C reads 15.8

Note to self: growth inhibition recorded for C[N+](C)(Cc1ccc([N+](=O)[O-])cc1)c1ccc(N(CCCl)CCCl)cc1 was 10.8

The origin of these recorded values is PubChem BioAssay (NCI).
